test system: SW-620; experiment: NCI tumour cell line growth inhibition, 48 h
Active and inactive are the calls of the source. No stated cut-off is given here; in the data, active = GI50 up to about 1.1 µM and inactive = higher.
Overview of recorded GI50 for various molecules

In the examples that follow, each entry is paired with its recorded GI50.
Oc1cccc2cc(Br)cnc12 = 5.28 µM (inactive)
C[C@@H](CC(O)C(O)C(C)(C)O)C1CCC23CC12CCC1[C@@]2(C)CCC(O)C(C)(C)C2CC(OC2OC(CO)C(O)C(O)C2O)[C@]13C (stereo not given in full) = > 10 µM (inactive)
Cc1ccc(NC(=O)CCc2nnc3s/c(=C\c4cccc([N+](=O)[O-])c4)c(=O)n23)cc1 = 19.3 µM (inactive)

Sample Clc1ncc(C(Cl)(Cl)Cl)nc1-c1ccccc1 — what was its GI50?
4.21 µM (inactive)

Sample Cc1ccc2c(C3Cc4ccccc4N3C(=O)/C=C\C(=O)O)c(C)[nH]c2c1 (stereo not given) — what was its GI50?
33.1 µM (inactive)

---

test system: IGROV-1; assay: NCI tumour cell line growth inhibition, 48 h
Calls of active or inactive are those of the source. Cut-off read from the data, not from the text of the source: active = GI50 up to about 1.1 µM and inactive = higher.
// allowed return values: 1 for active, 0 for inactive

CCCCCCCC/C=C\CCCCCCCCNc1ccn(C2OC(COP(=O)(O)OC3CC(n4cc(F)c(=O)[nH]c4=O)OC3CO)C(O)C2O)c(=O)n1 (centres undefined) = 0
COC(=O)c1sc2nc(Nc3ccccc3)/c(=N\c3ccccc3)sc2c1C = 0
COc1cc(C2C(C(=O)Nc3cc(F)c(F)cc3F)=C(C)NC(C)=C2C(=O)Nc2cc(F)c(F)cc2F)ccc1O = 0

Dear all, I need the recorded test outcome for O=[N+]([O-])c1cccc2nc3ccccc3c(NCCC[N+]3([O-])CCCCC3)c12 , thank you.
1

---

system: PC-3; test: NCI tumour cell line growth inhibition, 48 h
Active and inactive are the calls of the source. No stated cut-off is given here; in the data, active = GI50 up to about 1.1 µM and inactive = higher.
// allowed return values: Yes (active), No (inactive)

// below: answered molecules
COc1cccc2c1C(CO)N1C(C#N)C3CC(C(=O)O)C(C1C2)N3C (stereo not given) = Yes
CC(=O)Oc1ccccc1C(=O)O = No
COC(=O)CN(CC(O)C(NC(C)=O)C(O)C=O)C(=O)OCc1ccccc1 (stereo not given) = No
CCN1CCC(O)(c2ccc(Oc3ccc(F)cc3)cc2)C(C(=O)c2ccc(Oc3ccc(F)cc3)cc2)C1 (stereo not given) = No
CC(=O)Oc1ccc2ccc(=O)oc2c1OC(C)=O = No

Dear all, I need the recorded test outcome for N#Cc1c(NC(=S)Nc2ccc(Cl)cc2)sc2c1CCN(N1CCc3c(sc(NC(=S)Nc4ccc(Cl)cc4)c3C#N)C1)C2 , thank you.
No

Dear all, I need the recorded test outcome for c1ccc2c(c1)c1c3n2-c2cc(on2)C3CCC1 (stereo not given) , thank you.
No

---

Overview of recorded GI50 for various compounds
test system: SK-MEL-5; experiment: NCI tumour cell line growth inhibition, 48 h
The source made the active and inactive calls. Rule as the data show it: active = GI50 up to about 1.1 µM and inactive = higher.

In the examples that follow, each entry is paired with its recorded GI50.
CN(C)CCNC(=O)c1cc([N+](=O)[O-])ccn1 = 18.6 µM (inactive)
Nc1nc(Nc2ccccc2)sc1C(=O)c1cccs1 = 4.08 µM (inactive)
O=S1(=O)OCCOS(=O)(=O)C1I = 66.8 µM (inactive)
CC(C)(C)C1CCP(=O)(c2ccccc2)CC1 (stereo unspecified) = > 100 µM (inactive)
O=C(/N=C1/NCC(CN2CCN(c3ccccc3)CC2)O1)Nc1ccccc1 (stereo unspecified) = > 100 µM (inactive)

So what GI50 did c1ccc2c(c1)c1c3n2-c2cc(on2)C3CCC1 (stereo unspecified) get with SK-MEL-5?
> 100 µM (inactive)

So what GI50 did O=C1/C(=C/c2ccc(Cl)cc2)NC(=S)N1CN1CCCCC1 get with SK-MEL-5?
31 µM (inactive)

So what GI50 did N#Cc1c(N2CCOCC2)ncn(-c2ccccc2)c1=O get with SK-MEL-5?
> 100 µM (inactive)

So what GI50 did CCOC(=O)N1C=CC(=C2C(=C3C=CN(C(=O)OCC)C=C3)C(=C3C=CN(C(=O)OCC)C=C3)C2=C2C=CN(C(=O)OCC)C=C2)C=C1 get with SK-MEL-5?
26.5 µM (inactive)

So what GI50 did CCOC(=O)CCC(C(=O)OCC)n1nc2ccc(Nc3c(C)[n+]([O-])c4ccc(Cl)cc4[n+]3[O-])cc2n1 (stereo unspecified) get with SK-MEL-5?
21.8 µM (inactive)
